Each record here notes measured MIC.
system: Staphylococcus aureus; assay: Antimicrobial activity against Staphylococcus aureus CGMCC1.1361 after 24 hrs by modified microdilution method; type: functional; details: CGMCC1.1361, 24 h
Reply with the number, then its unit.

>  <smiles_notation>
COc1cccc2c3c([nH]c12)C(C)(C)[C@@H]1CC[C@]2(C)[C@H](CC=C4[C@@H]5[C@@H](C)[C@H](C)CC[C@]5(C(=O)NCCCN(C)C)CC[C@]42C)[C@@]1(C)C3

>  <MIC>
62.5 µg/mL

$$$$
>  <smiles_notation>
C[C@H]1[C@H](C)CC[C@]2(C(=O)O)CC[C@]3(C)C(=CC[C@@H]4[C@@]5(C)Cc6c([nH]c7ccc(Br)cc67)C(C)(C)[C@@H]5CC[C@]43C)[C@H]12

>  <MIC>
62.5 µg/mL

$$$$
>  <smiles_notation>
COC(=O)[C@]12CC[C@@H](C)[C@H](C)[C@H]1C1=CC[C@@H]3[C@@]4(C)Cc5c([nH]c6c(OC)cccc56)C(C)(C)[C@@H]4CC[C@@]3(C)[C@]1(C)CC2

>  <MIC>
31.2 µg/mL

$$$$
>  <smiles_notation>
COC(=O)[C@]12CC[C@@H](C)[C@H](C)[C@H]1C1=CC[C@@H]3[C@@]4(C)Cc5c([nH]c6ccc(C)cc56)C(C)(C)[C@@H]4CC[C@@]3(C)[C@]1(C)CC2

>  <MIC>
31.2 µg/mL

$$$$

Record C[C@H]1[C@H](C)CC[C@]2(C(=O)O)CC[C@]3(C)C(=CC[C@@H]4[C@@]5(C)Cc6c([nH]c7ccc(Cl)cc67)C(C)(C)[C@@H]5CC[C@]43C)[C@H]12 . Reported MIC: 31.2 µg/mL

====

test: Cytotoxicity against human […] cells assessed as cell survival after 48 hrs by MTT assay; assay type: functional, cell-based
observation_type: IC50 (µM)
Field format: number, assumed µM, no unit text.

Known IC50 results, listed for orientation:
>  <compound>
C[C@H]1[C@H](C)CC[C@]2(C(=O)NCCCN(C)C)CC[C@]3(C)C(=CC[C@@H]4[C@@]5(C)Cc6c([nH]c7ccc(Br)cc67)C(C)(C)[C@@H]5CC[C@]43C)[C@H]12

>  <unit_tag>
µM

>  <IC50>
6.8

$$$$
>  <compound>
COc1cccc2c1C(=O)c1c(O)c3c(c(O)c1C2=O)C[C@@](O)(C(=O)CO)C[C@@H]3O[C@H]1C[C@H](N)[C@H](O)[C@H](C)O1 [DOXORUBICIN]

>  <unit_tag>
µM

>  <IC50>
0.62

$$$$

Now consider the entry below.
Record Cc1ccc2[nH]c3c(c2c1)C[C@]1(C)[C@H]2CC=C4[C@@H]5[C@@H](C)[C@H](C)CC[C@]5(C(=O)O)CC[C@@]4(C)[C@]2(C)CC[C@H]1C3(C)C . Reported IC50: 13.8

====

tested on: Staphylococcus aureus; experiment: Antimicrobial activity against Staphylococcus aureus CGMCC1.1361 after 24 hrs by modified microdilution method; format: functional; details: CGMCC1.1361, 24 h
Each record here notes measured MIC.
Field format: number, assumed µg/mL, no unit text.

Known MIC results, listed for orientation:
>  <smiles_notation>
COC(=O)[C@]12CC[C@@H](C)[C@H](C)[C@H]1C1=CC[C@@H]3[C@@]4(C)Cc5c([nH]c6ccc(Cl)cc56)C(C)(C)[C@@H]4CC[C@@]3(C)[C@]1(C)CC2

>  <unit_tag>
µg/mL

>  <MIC>
62.5

$$$$
>  <smiles_notation>
C[C@H]1[C@H](C)CC[C@]2(C(=O)NCCCN(C)C)CC[C@]3(C)C(=CC[C@@H]4[C@@]5(C)Cc6c([nH]c7ccc(Br)cc67)C(C)(C)[C@@H]5CC[C@]43C)[C@H]12

>  <unit_tag>
µg/mL

>  <MIC>
31.2

$$$$
>  <smiles_notation>
C[C@H]1[C@H](C)CC[C@]2(C(=O)NCCCN(C)C)CC[C@]3(C)C(=CC[C@@H]4[C@@]5(C)Cc6c([nH]c7ccc(F)cc67)C(C)(C)[C@@H]5CC[C@]43C)[C@H]12

>  <unit_tag>
µg/mL

>  <MIC>
7.8

$$$$
>  <smiles_notation>
COC(=O)[C@]12CC[C@@H](C)[C@H](C)[C@H]1C1=CC[C@@H]3[C@@]4(C)Cc5c([nH]c6ccc(OC)cc56)C(C)(C)[C@@H]4CC[C@@]3(C)[C@]1(C)CC2

>  <unit_tag>
µg/mL

>  <MIC>
31.2

$$$$
>  <smiles_notation>
CCOc1ccc2[nH]c3c(c2c1)C[C@]1(C)[C@H]2CC=C4[C@@H]5[C@@H](C)[C@H](C)CC[C@]5(C(=O)NCCCN(C)C)CC[C@@]4(C)[C@]2(C)CC[C@H]1C3(C)C

>  <unit_tag>
µg/mL

>  <MIC>
62.5

$$$$
>  <smiles_notation>
CCOc1ccc2[nH]c3c(c2c1)C[C@]1(C)[C@H]2CC=C4[C@@H]5[C@@H](C)[C@H](C)CC[C@]5(C(=O)OC)CC[C@@]4(C)[C@]2(C)CC[C@H]1C3(C)C

>  <unit_tag>
µg/mL

>  <MIC>
31.2

$$$$
>  <smiles_notation>
COC(=O)[C@]12CC[C@@H](C)[C@H](C)[C@H]1C1=CC[C@@H]3[C@@]4(C)Cc5c([nH]c6ccccc56)C(C)(C)[C@@H]4CC[C@@]3(C)[C@]1(C)CC2

>  <unit_tag>
µg/mL

>  <MIC>
15.6

$$$$
>  <smiles_notation>
C[C@H]1[C@H](C)CC[C@]2(C(=O)O)CC[C@]3(C)C(=CC[C@@H]4[C@@]5(C)Cc6c([nH]c7ccccc67)C(C)(C)[C@@H]5CC[C@]43C)[C@H]12

>  <unit_tag>
µg/mL

>  <MIC>
31.2

$$$$
>  <smiles_notation>
C[C@H]1[C@H](C)CC[C@]2(C(=O)NCCCN(C)C)CC[C@]3(C)C(=CC[C@@H]4[C@@]5(C)Cc6c([nH]c7ccc(Cl)cc67)C(C)(C)[C@@H]5CC[C@]43C)[C@H]12

>  <unit_tag>
µg/mL

>  <MIC>
7.8

$$$$

Now consider the entry below.
Record Cc1ccc2[nH]c3c(c2c1)C[C@]1(C)[C@H]2CC=C4[C@@H]5[C@@H](C)[C@H](C)CC[C@]5(C(=O)O)CC[C@@]4(C)[C@]2(C)CC[C@H]1C3(C)C . Reported MIC: 62.5

====

system: Candida albicans; experiment: Antimicrobial activity against Candida albicans CGMCC2.2086 after 48 hrs by modified microdilution method; format: functional; details: CGMCC2.2086, 48 h
Each record here notes measured MIC.

Known MIC results, listed for orientation:
>  <smiles_notation>
COC(=O)[C@]12CC[C@@H](C)[C@H](C)[C@H]1C1=CC[C@@H]3[C@@]4(C)Cc5c([nH]c6ccc(Cl)cc56)C(C)(C)[C@@H]4CC[C@@]3(C)[C@]1(C)CC2

>  <value_measured>
> 100 µg/mL

$$$$
>  <smiles_notation>
COC(=O)[C@]12CC[C@@H](C)[C@H](C)[C@H]1C1=CC[C@@H]3[C@@]4(C)Cc5c([nH]c6c(OC)cccc56)C(C)(C)[C@@H]4CC[C@@]3(C)[C@]1(C)CC2

>  <value_measured>
> 100 µg/mL

$$$$
>  <smiles_notation>
COC(=O)[C@]12CC[C@@H](C)[C@H](C)[C@H]1C1=CC[C@@H]3[C@@]4(C)Cc5c([nH]c6ccc(Br)cc56)C(C)(C)[C@@H]4CC[C@@]3(C)[C@]1(C)CC2

>  <value_measured>
> 100 µg/mL

$$$$

Summary line: CCOc1ccc2[nH]c3c(c2c1)C[C@]1(C)[C@H]2CC=C4[C@@H]5[C@@H](C)[C@H](C)CC[C@]5(C(=O)O)CC[C@@]4(C)[C@]2(C)CC[C@H]1C3(C)C , Candida albicans, reported MIC = > 100 µg/mL

Summary line: COc1ccc2[nH]c3c(c2c1)C[C@]1(C)[C@H]2CC=C4[C@@H]5[C@@H](C)[C@H](C)CC[C@]5(C(=O)O)CC[C@@]4(C)[C@]2(C)CC[C@H]1C3(C)C , Candida albicans, reported MIC = > 100 µg/mL

====

Each record here notes measured MIC.
test system: Aspergillus niger; test: Antimicrobial activity against Aspergillus niger CGMCC3.316 after 48 hrs by modified microdilution method; format: functional; conditions: CGMCC3.316, 48 h
Field format: number, assumed µg/mL, no unit text.

>  <smiles_notation>
COC(=O)[C@]12CC[C@@H](C)[C@H](C)[C@H]1C1=CC[C@@H]3[C@@]4(C)Cc5c([nH]c6ccccc56)C(C)(C)[C@@H]4CC[C@@]3(C)[C@]1(C)CC2

>  <MIC [µg/mL]>
62.5

$$$$

Summary line: C[C@H]1[C@H](C)CC[C@]2(C(=O)NCCCN(C)C)CC[C@]3(C)C(=CC[C@@H]4[C@@]5(C)Cc6c([nH]c7ccc(Cl)cc67)C(C)(C)[C@@H]5CC[C@]43C)[C@H]12 , Aspergillus niger, reported MIC = 31.2

Summary line: C[C@H]1[C@H](C)CC[C@]2(C(=O)NCCCN(C)C)CC[C@]3(C)C(=CC[C@@H]4[C@@]5(C)Cc6c([nH]c7ccc(F)cc67)C(C)(C)[C@@H]5CC[C@]43C)[C@H]12 , Aspergillus niger, reported MIC = 31.2
